Quick list: pest or weed control at 35 g/ha per entry.
System: MATSS: scented mayweed (Matricaria chamomilla), pineappleweed (Matricaria matricarioides)
Assay: Post-emergent Test III, herbicidal activity in wheat and barley
Assay type: in vivo
Conditions: Matricaria chamomilla, post-emergence, 504 h; 35 g ai/ha; read-out: Visual Growth Reduction (%) 21 Days After Application MATSS

// solved cases for pest or weed control at 35 g/ha follow
[[record]]
record_smiles = "Nc1c(F)c(-c2ccc(OC(F)F)cc2)nc(C(=O)O)c1Cl"
endpoint_result = "0 to 29%"

[[record]]
record_smiles = "COC(=O)c1nc(-c2ccc(I)cc2)c(F)c(N)c1Cl"
endpoint_result = "60 to 74%"

[[record]]
record_smiles = "COC(=O)c1nc(-c2ccc(Br)cc2)c(F)c(N)c1Cl"
endpoint_result = "60 to 74%"

[[record]]
record_smiles = "Nc1c(F)c(-c2ccc(Cl)c(F)c2)nc(C(=O)O)c1Cl"
endpoint_result = "85 to 94%"

[[record]]
record_smiles = "Nc1cc(-c2ccc(Br)c(F)c2F)nc(C(=O)O)c1Cl"
endpoint_result = "60 to 74%"


Item under review: N#Cc1ccc(-c2nc(C(=O)O)c(Cl)c(N)c2F)cc1 . Reported pest or weed control at 35 g/ha? 95 to 100%

Continue with COC(=O)c1nc(-c2ccc(F)c(F)c2F)c(F)c(N)c1Cl 0 to 29%

Same thing, different compound: COC(=O)c1nc(-c2ccc(Br)c(F)c2F)c(F)c(N)c1Cl 30 to 44%

Follow-up item: COC(=O)c1nc(-c2ccc(Cl)c(F)c2)c(F)c(N)c1Cl 75 to 84%

###

Test system: KCHSC: kochia (Kochia scoparia)
Assay: Post-emergent Test III, herbicidal activity in wheat and barley
Type: in vivo
Conditions: Bassia scoparia, post-emergence, 504 h; Table 8; 70 g ai/ha; post-emergent; 21 d; read-out: Visual Growth Reduction (%) 21 Days After Application KCHSC
Entries and their measured pest or weed control at 70 g/ha follow.

Solved entries (count: 4):
[[record]]
record_smiles = "COC(=O)c1nc(-c2ccc(Br)c(F)c2)nc(N)c1OC"
test_readout = "pest or weed control at 70 g/ha"
endpoint_result = "95 to 100%"

[[record]]
record_smiles = "Nc1cc(-c2ccc(I)cc2F)nc(C(=O)O)c1Cl"
test_readout = "pest or weed control at 70 g/ha"
endpoint_result = "85 to 94%"

[[record]]
record_smiles = "Nc1c(Cl)c(C(=O)O)nc(-c2ccc(Br)c(F)c2)c1Cl"
test_readout = "pest or weed control at 70 g/ha"
endpoint_result = "85 to 94%"

[[record]]
record_smiles = "COC(=O)c1nc(-c2ccc(I)c(F)c2)c(C)c(N)c1Cl"
test_readout = "pest or weed control at 70 g/ha"
endpoint_result = "75 to 84%"


Next up:
Which pest or weed control at 70 g/ha value is on record for Nc1c(Cl)c(C(=O)O)nc(-c2ccc(I)c(F)c2)c1Cl ? 60 to 74%

###

pest or weed control at 70 g/ha values for the molecules below.
Test system: Key Grass and Sedge Weeds as well as Grass Crops
Assay: Post-emergent Test II herbicidal activity (Table 6)
Format: in vivo
Conditions: post-emergence, 336 h, ECHCG: barnyardgrass (Echinochloa crus-galli), 70 g ai/ha, read-out: Visual Growth Reduction (%) 14 Days After Application, ECHCG

Below are worked cases with known answers.
[[record]]
molecule = "C#Cc1ccc(-c2nc(C(=O)OC)c(Cl)c(N)c2F)c(F)c1F [Compound 22]"
test_readout = "pest or weed control at 70 g/ha"
endpoint_result = "0 to 29%"

[[record]]
molecule = "COC(=O)c1nc(-c2ccccc2F)c(F)c(N)c1Cl [Compound 206]"
test_readout = "pest or weed control at 70 g/ha"
endpoint_result = "0 to 29%"

[[record]]
molecule = "C#Cc1ccc(-c2nc(C(=O)O)c(Cl)c(N)c2F)c(F)c1 [Compound 108]"
test_readout = "pest or weed control at 70 g/ha"
endpoint_result = "45 to 59%"

[[record]]
molecule = "COC(=O)c1nc(-c2ccc(I)c(F)c2)c(F)c(N)c1Cl [Compound 132]"
test_readout = "pest or weed control at 70 g/ha"
endpoint_result = "85 to 94%"

[[record]]
molecule = "COC(=O)c1nc(-c2ccc(OC(F)F)cc2)c(F)c(N)c1Cl [Compound 85]"
test_readout = "pest or weed control at 70 g/ha"
endpoint_result = "95 to 100%"

[[record]]
molecule = "COC(=O)c1nc(-c2cccc(F)c2F)c(F)c(N)c1Cl [Compound 199]"
test_readout = "pest or weed control at 70 g/ha"
endpoint_result = "0 to 29%"

[[record]]
molecule = "COc1c(N)nc(-c2ccc(I)cc2)nc1C(=O)O [Compound 88]"
test_readout = "pest or weed control at 70 g/ha"
endpoint_result = "75 to 84%"

[[record]]
molecule = "COC(=O)c1nc(-c2ccccc2)nc(N)c1OC [Compound 175]"
test_readout = "pest or weed control at 70 g/ha"
endpoint_result = "0 to 29%"

[[record]]
molecule = "Nc1cc(-c2ccc(I)cc2)nc(C(=O)O)c1Cl [Compound 4]"
test_readout = "pest or weed control at 70 g/ha"
endpoint_result = "75 to 84%"


Turning now to a further record.
Which pest or weed control at 70 g/ha reading was recorded for the molecule COC(=O)c1nc(-c2ccc(OC(F)F)cc2F)c(F)c(N)c1Cl [Compound 104] ? 0 to 29%

###

Tested on: TRZSS: wheat, including spring and winter (Triticum aestivum)
Assay: Post-emergent Test III, herbicidal activity in wheat and barley
Format: in vivo
Conditions: Table 9; dose for 20 percent growth reduction, probit analysis; 21 d
Reported GR20 TRZSS values for the following compounds.
Please state the figure in g ai/ha; there is no need to write the unit.

[[record]]
record_smiles = "C=Cc1c(C(=O)O)nc(-c2ccc(Br)cc2)c(F)c1N"
endpoint_result = 32

[[record]]
record_smiles = "Nc1cc(-c2ccc(Br)cc2F)nc(C(=O)O)c1Cl"
endpoint_result = 1

[[record]]
record_smiles = "COc1c(N)nc(-c2ccc(C(F)(F)F)c(F)c2F)nc1C(=O)O"
endpoint_result = 4

[[record]]
record_smiles = "Nc1cc(-c2ccc(Br)cc2)nc(C(=O)O)c1Cl"
endpoint_result = 1

[[record]]
record_smiles = "COC(=O)c1nc(-c2ccc(I)cc2F)cc(N)c1Cl"
endpoint_result = 1


Which GR20 TRZSS reading was recorded for the compound Nc1c(Cl)c(C(=O)O)nc(-c2ccc(I)cc2)c1Cl ? 1

Cool, now Nc1c(Cl)c(C(=O)O)nc(-c2ccc(Br)cc2)c1Cl 1

###

Test system: Key Broadleaf Weed and Crop Species
Experiment: Post-emergent Test II herbicidal activity (Table 5)
Format: in vivo
Conditions: post-emergence, 336 h; EPHHL: wild poinsettia (Euphorbia heterophylla); 70 g ai/ha; post-emergent; 14 days after application; read-out: Visual Growth Reduction (%) 14 Days After Application EPHHL
Test Readout: pest or weed control at 70 g/ha

The cases that follow already have their pest or weed control at 70 g/ha on record.
[[record]]
record_smiles = "C=Cc1c(C(=O)OC)nc(-c2ccc(Br)cc2)c(F)c1N"
test_readout = "pest or weed control at 70 g/ha"
endpoint_result = "85 to 94%"

[[record]]
record_smiles = "Cc1c(-c2ccc(OC(F)F)cc2)nc(C(=O)O)c(Cl)c1N"
test_readout = "pest or weed control at 70 g/ha"
endpoint_result = "0 to 29%"

[[record]]
record_smiles = "COC(=O)c1nc(-c2ccc(C#N)cc2)c(C)c(N)c1Cl"
test_readout = "pest or weed control at 70 g/ha"
endpoint_result = "0 to 29%"

[[record]]
record_smiles = "COC(=O)c1nc(-c2cc(F)c(C#N)cc2F)c(F)c(N)c1Cl"
test_readout = "pest or weed control at 70 g/ha"
endpoint_result = "45 to 59%"

[[record]]
record_smiles = "COC(=O)c1nc(-c2cc(F)c(I)cc2F)nc(N)c1OC"
test_readout = "pest or weed control at 70 g/ha"
endpoint_result = "95 to 100%"

[[record]]
record_smiles = "C#Cc1ccc(-c2nc(C(=O)OC)c(Cl)c(N)c2Cl)cc1"
test_readout = "pest or weed control at 70 g/ha"
endpoint_result = "75 to 84%"

[[record]]
record_smiles = "COc1c(N)nc(-c2ccc(I)c(F)c2)nc1C(=O)O"
test_readout = "pest or weed control at 70 g/ha"
endpoint_result = "95 to 100%"

[[record]]
record_smiles = "COC(=O)c1nc(-c2cc(F)c(C(F)F)cc2F)cc(N)c1Cl"
test_readout = "pest or weed control at 70 g/ha"
endpoint_result = "95 to 100%"

[[record]]
record_smiles = "C#Cc1ccc(-c2nc(C(=O)OC)c(Cl)c(N)c2C)cc1F"
test_readout = "pest or weed control at 70 g/ha"
endpoint_result = "0 to 29%"

[[record]]
record_smiles = "C=Cc1c(N)nc(-c2ccc(C#N)cc2F)nc1C(=O)OC"
test_readout = "pest or weed control at 70 g/ha"
endpoint_result = "0 to 29%"


Looking for the measured pest or weed control at 70 g/ha of C=Cc1c(C(=O)O)nc(-c2ccc(C#N)cc2)c(F)c1N , can you help? 95 to 100%

Same for C=Cc1c(C(=O)O)nc(-c2ccc(C(F)(F)F)c(F)c2)c(F)c1N 95 to 100%

And what about the compound C=Cc1c(C(=O)OC)nc(-c2ccc(C(F)(F)F)c(F)c2F)c(F)c1N ? 95 to 100%

Next entry: COC(=O)c1nc(-c2ccc(Br)c(F)c2)c(Cl)c(N)c1Cl 45 to 59%

Moving on to COC(=O)c1nc(-c2cc(F)c(C)cc2F)cc(N)c1Cl 95 to 100%

Data origin, for the record: patent US9113629B2
